# assay system: UniProtKB P35968
# Sequence (P35968 20-1356, species assumed): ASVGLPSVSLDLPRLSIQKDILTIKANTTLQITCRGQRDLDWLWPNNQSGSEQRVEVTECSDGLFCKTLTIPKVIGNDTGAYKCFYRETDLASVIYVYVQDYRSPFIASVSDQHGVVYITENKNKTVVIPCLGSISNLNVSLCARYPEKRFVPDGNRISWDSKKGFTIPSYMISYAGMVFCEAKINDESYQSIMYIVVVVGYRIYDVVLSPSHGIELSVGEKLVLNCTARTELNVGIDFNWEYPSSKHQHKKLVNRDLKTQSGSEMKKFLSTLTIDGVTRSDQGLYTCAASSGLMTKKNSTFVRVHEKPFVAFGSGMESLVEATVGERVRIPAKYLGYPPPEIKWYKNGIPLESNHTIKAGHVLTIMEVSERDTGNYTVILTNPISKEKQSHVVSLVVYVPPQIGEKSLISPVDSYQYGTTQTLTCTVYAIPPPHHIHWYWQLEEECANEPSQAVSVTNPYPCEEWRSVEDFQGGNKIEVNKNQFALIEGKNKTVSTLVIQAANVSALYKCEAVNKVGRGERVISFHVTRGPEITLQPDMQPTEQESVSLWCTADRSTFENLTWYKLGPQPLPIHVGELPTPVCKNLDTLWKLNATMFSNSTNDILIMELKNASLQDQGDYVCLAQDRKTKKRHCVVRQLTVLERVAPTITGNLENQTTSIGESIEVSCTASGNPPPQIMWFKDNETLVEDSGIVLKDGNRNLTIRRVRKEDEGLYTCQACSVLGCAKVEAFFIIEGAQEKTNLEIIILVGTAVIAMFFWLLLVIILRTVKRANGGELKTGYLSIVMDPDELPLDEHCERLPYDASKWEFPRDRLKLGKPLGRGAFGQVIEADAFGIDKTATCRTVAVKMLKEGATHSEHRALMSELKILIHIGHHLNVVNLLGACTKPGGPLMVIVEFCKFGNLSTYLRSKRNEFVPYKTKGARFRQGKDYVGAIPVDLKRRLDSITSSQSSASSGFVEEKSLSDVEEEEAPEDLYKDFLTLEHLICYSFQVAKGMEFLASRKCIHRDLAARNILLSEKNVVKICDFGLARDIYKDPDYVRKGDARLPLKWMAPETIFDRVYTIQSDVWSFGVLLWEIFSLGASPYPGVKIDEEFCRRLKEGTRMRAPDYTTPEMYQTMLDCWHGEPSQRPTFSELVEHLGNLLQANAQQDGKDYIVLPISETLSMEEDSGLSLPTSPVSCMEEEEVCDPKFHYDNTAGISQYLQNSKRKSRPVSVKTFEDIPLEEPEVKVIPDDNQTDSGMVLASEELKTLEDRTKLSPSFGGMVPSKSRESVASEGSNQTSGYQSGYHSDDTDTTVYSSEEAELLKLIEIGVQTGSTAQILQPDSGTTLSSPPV
Record form. Attribute: IC50. Fill in for each entry.

>  <compound>
Cc1ccncc1NC(=O)c1ccnc2[nH]c(-c3cccc(F)c3)nc12 [Example 451]

>  <IC50>
1650 nM

$$$$
>  <compound>
Cc1ccncc1NC(=O)c1ccnc2[nH]c(-c3ccc(NCCCCN(C)C)cc3)nc12 [Example 343]

>  <IC50>
170 nM

$$$$
>  <compound>
CCS(=O)(=O)Nc1ccc(CCNC(=O)c2ccnc3[nH]c(-c4ccc(F)cc4)nc23)cc1 [Example 198]

>  <IC50>
12500 nM

$$$$

// below: IC50 requested for another compound
Asked: I would be grateful if you could share the reported IC50 for CCSc1ccncc1NC(=O)c1ccnc2[nH]c(-c3ccc(F)cc3)nc12 [Example 320] .
Given back: 290 nM

The measured values listed here are drawn from patent US20090170847A1.
